Listing of recorded growth by entry.
Test system: ACHN renal
Assay: NCI-60 one-dose screen, 48 h (100 = growth as untreated, 0 = no growth, -100 = all killed)
Details: 10 µM unless noted
This is part of a sample that, as a whole, favours compounds with a hit. Of some 83,000 tested, about 20% had one in any assay.
Metric name: growth (%)

>>> meas_value("Fc1ccc2c(CN3CCO[C@H](COc4cccc(Cl)c4)C3)c[nH]c2c1")
46.8
>>> meas_value("CCCCCCCCCCCCCC(=S)NCCCC[C@H](NC(=O)OCc1ccccc1)C(=O)Nc1ccccc1")
24.6
>>> meas_value("Cc1cc(C)cc(NC(=O)Cn2nncc2CN2C(=O)CSC2=O)c1")
99.6
>>> meas_value("COc1ccc(/C=c2\\c(=O)n(-c3ccccc3)c3nn4c(n23)=NNC42CCCCC2)cc1")
90.5
>>> meas_value("NS(=O)(=O)c1ccc(N2N=C(c3ccc(Br)cc3)CC2c2cn(-c3ccccc3)nc2-c2ccc(Cl)cc2)cc1 (stereo not given)")
86.5

====

Listing of recorded growth by entry.
System: HOP-92 NSCLC
Assay: NCI-60 one-dose screen, 48 h (100 = growth as untreated, 0 = no growth, -100 = all killed)
Conditions: 10 µM unless noted
About 83,000 compounds went through this panel and 20% of them were active in at least one assay; those are over-represented in the sample as a whole.
Metric name: growth (%)

>>> meas_value("Cc1ccc(N=CNN=C(N)N)cc1")
109
>>> meas_value("CC(=O)OC1Oc2ccccc2-c2oc3nc(=N)n(C)c-3cc21 (configuration not stated)")
99.1
>>> meas_value("CN=C1C=C/C(=N/N=c2/ccn(O)cc2C)C=C1C")
85.7
>>> meas_value("CC1=NOCC(=O)N1")
96
>>> meas_value("Cc1cc(NC(=O)C2c3ccccc3C(=O)N(CC(C)C)C2c2cccs2)no1 (configuration not stated)")
-0.868
>>> meas_value("CC(C)NCCCCCNc1cc(O)cc2cccnc12")
-8.76
>>> meas_value("Brc1cccc(-n2ncc3c(Nc4ccc(-c5nnc(-c6ccccc6)o5)cc4)ncnc32)c1")
104
>>> meas_value("Fc1cnccc1-c1nc2ccc3[nH]ncc3c2c2c1CCCC2")
40.7
>>> meas_value("O=C(CCc1nc2sc3c(c2c(=O)[nH]1)CCC3)NCc1cn(-c2ccccc2)nc1-c1ccccc1")
95.9
>>> meas_value("COc1ccc(NC(=O)/C=C/c2ccc(NC(=O)N3CCCC3)cc2)cn1")
103
>>> meas_value("O=C(NC1CC1)c1ccc(-c2nc3ccc4[nH]ncc4c3c3c2CCCC3)cc1")
71.2
>>> meas_value("O=C(/C=C/c1cn(-c2ccccc2)nc1-c1cccc(Nc2ccnc3cc(Cl)ccc23)c1)c1ccc2c(c1)OCO2")
88.1
>>> meas_value("O=C(c1ccccc1)N(CCCCl)C(=O)N(CCCCl)C(=O)c1ccccc1")
70.1
>>> meas_value("CCCc1n(Cc2ccc3ccccc3n2)cc[n+]1Cc1ccc2ccccc2n1")
16
>>> meas_value("COc1ccc(/C=C/C(=O)c2ccc(NC(=O)CSc3nnc(-c4ccc(OC)cc4)n3-c3ccccc3)cc2)cc1")
106
>>> meas_value("CN(C)c1ccc(N2Cc3ccccc3OC3=C2C(=O)c2c(O)ccc(O)c2C3=O)cn1")
-65.2
>>> meas_value("COc1cc(C2CC(c3ccc(Nc4ccnc5cc(Cl)ccc45)cc3)=NN2c2ccccc2)cc(OC)c1OC (configuration not stated)")
52.5
>>> meas_value("COc1ccc(C(=O)C(CN(C)C)c2ccccc2)cc1 (configuration not stated)")
-4.35
>>> meas_value("Fc1cc(-c2nnc3sc(-c4ccc(Cl)cc4)nn23)c(Cl)cc1Cl")
74.8
>>> meas_value("CCOC(=O)C(=CNc1ccccc1Cl)C(=O)OCC")
97.2
>>> meas_value("Clc1ccc2c(c1)-n1cccc1C(c1ccc3ccccc3c1)=NC2")
89.6
>>> meas_value("Clc1ccccc1Nc1nnc(-c2ccncc2)s1")
93.9
